Reported MIC is given for each of the following molecules.
Test system: Enterococcus
Experiment: In vitro antimicrobial activity against Vancomycin resistant enterococcus strain UCD-3
Format: functional
Numbers only; they are read as µM.

N=C(N)CCNC(=O)c1cc(NC(=O)c2ccc(C(=O)Nc3cc(C(=O)NCCC(=N)N)n(CC4CC4)c3)c([N+](=O)[O-])c2)cn1CC1CC1 : 2.8
CC(C)CCn1cc(NC(=O)C2=CC=C(C(=O)Nc3cc(C(=O)NCCC(=N)N)n(CCC(C)C)c3)CC2)cc1C(=O)NCCC(=N)N : 1.4
C/N=C(/CCNC(=O)c1cc(NC(=O)c2ccc(C(=O)Nc3cc(C(=O)NCC/C(=N/C)NC)n(CCC(C)C)c3)cc2)cn1CCC(C)C)NC : 1.4
CC(C)CCn1cc(NC(=O)c2ccc(C(=O)Nc3cc(C(=O)NCCC(=N)N)n(CCC(C)C)c3)nc2)cc1C(=O)NCCC(=N)N : 1.4

Briefly, MIC measured for CC(C)CCn1cc(NC(=O)c2ccc(C(=O)Nc3cc(C(=O)NCCC(=N)N)n(CCC(C)C)c3)c3ccccc23)cc1C(=O)NCCC(=N)N : 5.7

Briefly, MIC measured for Cc1cc(C(=O)Nc2cc(C(=O)NCCC(=N)N)n(CC3CC3)c2)ccc1C(=O)Nc1cc(C(=O)NCCC(=N)N)n(CC2CC2)c1 : 2.8

Briefly, MIC measured for N=C(N)CCNC(=O)c1cc(NC(=O)c2cnc(C(=O)Nc3cc(C(=O)NCCC(=N)N)n(CC4CC4)c3)cn2)cn1CC1CC1 : 5.7

Briefly, MIC measured for CC(C)CCn1cc(NC(=O)c2ccc(C(=O)Nc3cc(C(=O)NCCC(=N)N)n(CCC(C)C)c3)c([N+](=O)[O-])c2)cc1C(=O)NCCC(=N)N : 1.4
